Biological target: human TLR8 (Homo sapiens (Human), UniProt Q9NR97)
Sequence (Q9NR97 27-1041): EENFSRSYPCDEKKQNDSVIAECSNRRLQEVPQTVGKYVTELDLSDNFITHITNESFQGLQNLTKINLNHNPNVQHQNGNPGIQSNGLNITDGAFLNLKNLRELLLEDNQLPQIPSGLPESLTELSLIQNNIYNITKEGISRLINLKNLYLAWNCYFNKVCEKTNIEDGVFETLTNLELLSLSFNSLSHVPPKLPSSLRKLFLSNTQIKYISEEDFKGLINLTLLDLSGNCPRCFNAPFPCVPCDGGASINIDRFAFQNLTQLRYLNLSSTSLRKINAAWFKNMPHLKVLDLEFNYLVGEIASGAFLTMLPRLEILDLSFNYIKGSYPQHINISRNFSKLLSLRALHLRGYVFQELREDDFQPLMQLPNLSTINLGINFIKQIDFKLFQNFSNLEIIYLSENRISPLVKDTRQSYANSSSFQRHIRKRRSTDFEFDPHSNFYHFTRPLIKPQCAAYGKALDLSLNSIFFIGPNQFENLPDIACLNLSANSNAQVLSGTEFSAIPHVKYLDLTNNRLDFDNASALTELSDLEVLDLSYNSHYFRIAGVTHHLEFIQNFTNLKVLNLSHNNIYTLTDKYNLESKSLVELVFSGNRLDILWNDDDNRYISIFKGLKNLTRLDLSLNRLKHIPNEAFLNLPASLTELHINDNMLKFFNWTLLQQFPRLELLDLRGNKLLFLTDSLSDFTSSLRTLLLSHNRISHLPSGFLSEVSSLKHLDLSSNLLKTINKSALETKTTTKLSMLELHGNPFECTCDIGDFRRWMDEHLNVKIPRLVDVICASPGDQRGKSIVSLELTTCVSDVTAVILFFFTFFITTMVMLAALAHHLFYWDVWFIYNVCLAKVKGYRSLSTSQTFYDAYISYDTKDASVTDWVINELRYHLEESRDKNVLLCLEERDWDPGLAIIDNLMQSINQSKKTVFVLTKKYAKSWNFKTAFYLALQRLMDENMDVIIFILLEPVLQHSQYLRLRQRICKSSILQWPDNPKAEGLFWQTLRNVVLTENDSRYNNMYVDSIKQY
Experiment: TLR8 inhibition reporter assay (HEK-Blue SEAP);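 further: SEAP driven by IFN-β minimal promoter with five NF-κB and AP-1 sites, compounds tested 0.05 nM to 50 µM, 22 h incubation, inhibition relative to agonist plus DMSO wells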
Conditions: read-out: TLR8 IC50; HEK-Blue cells overexpressing human TLR8, R848 15.9 μM stimulation, SEAP reporter
pIC50: −log10 of the molar value.
ASSAY METRIC: pIC50

MOLECULE: COc1cc(-c2[nH]c3cnc(C4CCC(N5CCC5)CC4)c(F)c3c2C(C)C)cn2ncnc12 (stereo not drawn) [Example 75]
pIC50: 8.25

a. Cc1c(-c2[nH]c3cnc(C4CCC(NCC(C)(C)C)CC4)c(C)c3c2C(C)C)cn2ncnc2c1C (stereo not drawn) [Example 58]
b. COCCN1CCN(c2ncc3[nH]c(-c4cn5ncnc5c(C)c4C)c(C(C)C)c3c2F)CC1
c. COc1cc(-c2[nH]c3cnc(N4CCN(CC(F)(F)F)C[C@H]4C)c(F)c3c2C(C)C)cn2ncnc12
d. COc1cc(-c2[nH]c3cnc(N4CCC(NCC5(C)COC5)CC4)cc3c2C(C)C)cn2ncnc12
e. Cc1c(-c2[nH]c3cnc(C4CCN(CC(N)=O)CC4)c(F)c3c2C(C)C)cn2ncnc2c1C
Problem: Reorder: pIC50, max to min. List labels; respect the requested ordering.
Result: d, b, e, a, c
(d: 9.64, b: 9.41, e: 8.80, a: 7.64, c: 6.77)

A. Cc1c(-c2[nH]c3cnc(C4CCC(NC5COC5)CC4)c(C)c3c2C(C)C)cn2ncnc2c1C (stereo not drawn) [Example 91]
B. Cc1cc(-c2[nH]c3cnc(N4CCC(NC5COC5)CC4)c(F)c3c2C(C)C)cn2ncnc12
Problem: Given A and given B , which shows the smaller recorded pIC50? Answer format: the label of the selected item.
Result: A
(A: 7.57, B: 9.31)

a. COc1cc(-c2[nH]c3cnc(C4CCC(NC(C)C)CC4)cc3c2C(C)C)cn2ncnc12 (stereo not drawn) [Example 323]
b. COc1cc(-c2[nH]c3cnc(N4CCN(C5CCCOC5)CC4)c(F)c3c2C(C)C)cn2ncnc12 (single isomer, unassigned) [Example 386]
c. Cc1cc(-c2[nH]c3cnc(C4CCN(CC(C)(C)O)CC4)c(F)c3c2C(C)C)cn2ncnc12
Problem: Reorder: pIC50, max to min. List labels; respect the requested ordering.
Result: c, b, a
(c: 8.85, b: 8.17, a: 7.70)

* * *

Target: UniProt:Q9NYK1
Sequence (Q9NYK1 27-1049): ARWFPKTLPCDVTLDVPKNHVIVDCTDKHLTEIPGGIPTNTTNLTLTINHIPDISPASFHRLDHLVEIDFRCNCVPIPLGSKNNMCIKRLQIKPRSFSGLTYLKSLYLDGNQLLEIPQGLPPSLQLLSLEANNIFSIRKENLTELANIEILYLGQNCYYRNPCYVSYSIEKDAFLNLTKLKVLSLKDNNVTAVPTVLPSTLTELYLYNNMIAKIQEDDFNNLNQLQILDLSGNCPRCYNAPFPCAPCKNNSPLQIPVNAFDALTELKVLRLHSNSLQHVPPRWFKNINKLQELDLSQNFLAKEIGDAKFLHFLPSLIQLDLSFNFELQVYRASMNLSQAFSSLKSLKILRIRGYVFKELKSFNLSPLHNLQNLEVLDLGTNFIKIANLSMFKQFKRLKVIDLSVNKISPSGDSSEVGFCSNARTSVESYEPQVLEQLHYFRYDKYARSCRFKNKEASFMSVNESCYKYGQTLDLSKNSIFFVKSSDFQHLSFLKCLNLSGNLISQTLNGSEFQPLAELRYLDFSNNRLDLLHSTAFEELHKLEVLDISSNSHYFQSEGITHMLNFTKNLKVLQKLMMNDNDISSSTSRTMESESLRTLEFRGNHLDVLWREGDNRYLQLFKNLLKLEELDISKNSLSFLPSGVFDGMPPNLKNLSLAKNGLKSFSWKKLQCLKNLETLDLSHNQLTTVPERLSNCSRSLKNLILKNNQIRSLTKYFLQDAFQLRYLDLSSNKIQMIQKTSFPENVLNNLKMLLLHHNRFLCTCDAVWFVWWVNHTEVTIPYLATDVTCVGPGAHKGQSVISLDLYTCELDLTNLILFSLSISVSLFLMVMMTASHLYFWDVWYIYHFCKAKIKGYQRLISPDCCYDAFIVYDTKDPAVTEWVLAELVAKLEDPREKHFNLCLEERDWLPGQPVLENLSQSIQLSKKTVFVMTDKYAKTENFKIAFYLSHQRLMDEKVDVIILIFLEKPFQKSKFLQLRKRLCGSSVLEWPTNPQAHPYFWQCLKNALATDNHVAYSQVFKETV
Test: TLR7 inhibition reporter assay (HEK-Blue SEAP)
Settings: HEK-Blue cells overexpressing human TLR7, gardiquimod 7.5 μM stimulation
pIC50: −log10 of the molar value.
ASSAY METRIC: pIC50

MOLECULE: COc1ccc(-c2[nH]c3cnc(C4CCN(C5CCN(CC(C)C)CC5)CC4)cc3c2C)cc1OC [Example 9]
ASSAY METRIC: pIC50
VALUE MEASURED: 6.26

P. COc1cc(-c2[nH]c3cnc(N4CCN(C5CCOCC5)C[C@H]4C)c(F)c3c2C(C)C)cn2ncnc12 [Example 452]
Q. Cc1c(-c2[nH]c3cnc(N4CCN(C5COC5)CC4)c(C)c3c2C(C)C)cn2ncnc2c1C [Example 417]
R. COc1cc(-c2[nH]c3cnc(C4CCC(N5CCC5)CC4)c(F)c3c2C(C)C)cn2ncnc12 (stereo not shown) [Example 75]
Problem: Please list these in order of increasing pIC50. Thank you! List labels; respect the requested ordering.
Result: Q, P, R
